All figures here come from DBAASP.

tested on: Streptococcus agalactiae
Please respond with reported MIC for every item in the list.
Write down the numeric answer in µM and omit the unit.

Provide the documented MIC with Streptococcus agalactiae as the system for `CC[C@H](C)[C@H](NC(=O)[C@H](CC(C)C)NC(=O)[C@@H](NC(=O)[C@@H](N)CC(=O)O)[C@@H](C)CC)C(=O)N[C@H](C(=O)N[C@H](C(=O)NCC(=O)NCC(=O)N[C@@H](CCCCN)C(=O)N[C@@H](CCCN=C(N)N)C(=O)N[C@@H](CCCN=C(N)N)C(=O)N[C@@H](CCCN=C(N)N)C(N)=O)C(C)C)[C@@H](C)CC`
5.66

Same again, this time with `CC[C@H](C)[C@H](NC(=O)CN)C(=O)N[C@@H](CC(C)C)C(=O)NCC(=O)N[C@@H](CCCCN)C(=O)N[C@@H](CC(C)C)C(=O)N[C@@H](Cc1c[nH]c2ccccc12)C(=O)N[C@@H](CCC(=O)O)C(=O)NCC(=O)N[C@H](C(=O)N[C@@H](CCCCN)C(=O)N[C@@H](CO)C(=O)N[C@H](C(=O)N[C@@H](Cc1ccccc1)C(N)=O)[C@@H](C)CC)C(C)C`
16.2
